Attribution: paper PMC6465675

Read-out record for WNV: SI CC50/EC50 (WNV)
The answer should be a number; do not append a unit.

Examples from the recorded data:
C[C@@]1(O)[C@H](O)[C@@H](CO)O[C@H]1n1cnc2c(=O)[nH]c(N)nc21 [NM 108, 2′-C-methylguanosin, reference compound]	85.7
Clc1ccc(NCc2cn(-c3ccccc3)nc2-c2ccc(Cl)cc2)cc1	1.3

Let's switch to this compound now.
Query string: Consider the compound Cc1ccc(NCc2cn(-c3ccccc3)nc2-c2ccc(C(F)(F)F)cc2)cc1 tested on WNV; state its SI CC50/EC50 (WNV).
Result string: 1.5

* * *

Readings of CC50 for the listed molecules
Test: in vitro
Settings: human

Examples from the recorded data:
O=S(=O)(c1ccccc1)n1cc(CNc2ccc(Br)cc2)c(-c2ccc(Cl)cc2)n1	> 100 µM
O=S(=O)(c1ccccc1)n1cc(CNc2ccccc2)c(-c2ccccc2)n1	> 100 µM
COc1ccc(S(=O)(=O)n2cc(CNc3ccc(Cl)cc3)c(-c3ccc(Cl)cc3)n2)cc1	> 100 µM
Cc1ccc(-c2nn(S(=O)(=O)c3ccccc3)cc2CNc2ccc(Cl)cc2)cc1	> 100 µM
COc1ccc(S(=O)(=O)n2cc(CNc3ccc(Cl)cc3)c(-c3ccc(C)cc3)n2)cc1	> 100 µM

Query string: Return the recorded CC50 value; entry: Cc1ccc(NCc2cn(S(=O)(=O)c3ccccc3)nc2-c2ccc(C)cc2)cc1
Result string: > 100 µM

Query string: Return the recorded CC50 value; entry: COc1ccc(S(=O)(=O)n2cc(CNc3ccccc3)c(-c3ccc(C)cc3)n2)cc1
Result string: > 100 µM

Query string: Return the recorded CC50 value; entry: O=S(=O)(c1ccccc1)n1cc(CNc2ccc(Cl)cc2)c(-c2ccc(Cl)cc2)n1
Result string: > 100 µM

Query string: Return the recorded CC50 value; entry: O=S(=O)(c1ccccc1)n1cc(CNc2ccc(Br)cc2)c(-c2ccc(Br)cc2)n1
Result string: > 100 µM

Query string: Return the recorded CC50 value; entry: O=S(=O)(c1ccccc1)n1cc(CNc2ccc(Br)cc2)c(-c2ccccc2)n1
Result string: 20 µM

Query string: Return the recorded CC50 value; entry: COc1ccc(S(=O)(=O)n2cc(CNc3ccc(C)cc3)c(-c3ccc(C)cc3)n2)cc1
Result string: > 100 µM

Query string: Return the recorded CC50 value; entry: O=S(=O)(c1ccccc1)n1cc(CNc2ccccc2)c(-c2ccc(Br)cc2)n1
Result string: > 100 µM

Query string: Return the recorded CC50 value; entry: COc1ccc(S(=O)(=O)n2cc(CNc3ccc(Br)cc3)c(-c3ccc(Br)cc3)n2)cc1
Result string: > 100 µM

Query string: Return the recorded CC50 value; entry: O=S(=O)(c1ccccc1)n1cc(CNc2ccc(Cl)cc2)c(-c2ccccc2)n1
Result string: > 100 µM

Query string: Return the recorded CC50 value; entry: O=S(=O)(c1ccccc1)n1cc(CNc2ccccc2)c(-c2ccc(Cl)cc2)n1
Result string: > 100 µM

Query string: Return the recorded CC50 value; entry: Cc1ccc(-c2nn(S(=O)(=O)c3ccccc3)cc2CNc2ccc(Br)cc2)cc1
Result string: > 100 µM

Query string: Return the recorded CC50 value; entry: COc1ccc(S(=O)(=O)n2cc(CNc3ccc(C)cc3)c(-c3ccc(Br)cc3)n2)cc1
Result string: > 100 µM

Query string: Return the recorded CC50 value; entry: Cc1ccc(NCc2cn(S(=O)(=O)c3ccccc3)nc2-c2ccc(Cl)cc2)cc1
Result string: > 100 µM
